Taken from the supplement of paper PMC11451515.

Tested on: P12-Ichikawa
Assay: cell viability relative to DMSO control; higher = less cytotoxic
Conditions: RPMI 5 mM glucose + 10% FBS; 48 h; 5.12 µM
Lab note - cut at 80% for cell viability: y if strictly below, n if not.

Strictly below 80%: is that where cell viability of CCc1c(C(=O)C(N)=O)c2c(OCC(=O)O)cccc2n1Cc1ccccc1 sits?
n

Strictly below 80%: is that where cell viability of CC(=O)Nc1ccc([C@H](C)C(=O)Nc2ncc(C(C)C)s2)cc1 sits?
n

Strictly below 80%: is that where cell viability of CN(C)CCc1c[nH]c2ccc(C[C@H]3COC(=O)N3)cc12 sits?
n

Strictly below 80%: is that where cell viability of CCN(CC)C(=S)SSC(=S)N(CC)CC sits?
y

Next:
Strictly below 80%: is that where cell viability of C[S+](=O)([O-])N(Cc1ccco1)CC(O)Cn1c2ccccc2c2ccccc21 (stereo unspecified) sits?
y

Strictly below 80%: is that where cell viability of CC(C)C[C@H](NC(=O)[C@@H](NC(=O)c1cccc(-c2ccccc2)n1)[C@@H](C)O)B(O)O sits?
y

====

Reported cell viability values for a set of compounds
Test system: NOMO1
Test: cell viability relative to DMSO control; higher = less cytotoxic
Conditions: RPMI 5 mM glucose + 10% dialyzed FBS; 48 h; 0.19 µM
Please respond with the number in % and leave the unit unwritten.

Below, 4 compounds whose answers are already recorded.
Look up and state reported cell viability for CC(=O)CC(C1=CC=CC=C1)C/2=C(O)/C3=CC=CC=C3OC2=O (stereo not given)
126

Look up and state reported cell viability for CC(=O)Nc1ccc([C@H](C)C(=O)Nc2ncc(C(C)C)s2)cc1
92

Look up and state reported cell viability for C[N+]1(C)[C@@H]2C[C@@H](OC(=O)[C@H](CO)c3ccccc3)C[C@H]1[C@@H]1O[C@@H]12.[Br-]
90.8

Look up and state reported cell viability for CN(C)CCc1c[nH]c2ccc(C[C@H]3COC(=O)N3)cc12
114

Alright, here's another compound for you.
Look up and state reported cell viability for N[S+](=O)([O-])c1cc(Cl)c(Cl)c([S+](N)(=O)[O-])c1
95.7

====

Test system: NOMO1
Assay: AUC of viability dose-response curve (% viability x log10 dose units); higher = less sensitive
Details: RPMI 5 mM glucose + 10% dialyzed FBS; 48 h
Lab note - cut at 400 for AUC of viability dose-response curve: YES if strictly below, NO if not.

# count of solved cases: 2
Strictly below 400: is that where AUC of viability dose-response curve of Cc1cccc(-c2nn(C(=S)Nc3ccccc3)cc2-c2ccnc3ccccc23)n1 sits?
NO

Strictly below 400: is that where AUC of viability dose-response curve of O=C(CO)N1CCC(c2n[nH]c(-c3ccc(Cl)cc3)c2-c2ccncn2)CC1 sits?
NO

Next:
Strictly below 400: is that where AUC of viability dose-response curve of O=C(NC[C@H]1CN(c2ccc(N3CCOCC3=O)cc2)C(=O)O1)c1ccc(Cl)s1 sits?
YES

====

Reported AUC of viability dose-response curve values for a set of molecules
Test system: SEM cells
Assay: AUC of viability dose-response curve (% viability x log10 dose units); higher = less sensitive
Conditions: HPLM + 10% dialyzed FBS; 48 h
Give only the figure.

Give AUC of viability dose-response curve for CC1(C)C(=O)N(CCN2CCC(C(=O)c3ccc(F)cc3)CC2)c2ccccc21 tested on SEM cells.
471

Next:
Give AUC of viability dose-response curve for CC(C)Oc1cc(Nc2nc(N[C@@H](C)c3ccc(F)cn3)ncc2Cl)n[nH]1 tested on SEM cells.
319

Give AUC of viability dose-response curve for COc1cc(C(=O)N2CCC(N3CCN(C)CC3)CC2)ccc1Nc1ncc2c(n1)N(C)c1ccccc1C(=O)N2C tested on SEM cells.
376

Give AUC of viability dose-response curve for C\C1=C\C(=O)C2=C(C=CC=C2)C1=O tested on SEM cells.
464

Give AUC of viability dose-response curve for CC1=C(C=CC=C1)N2\C(=N/C3=C(C(=CC=C3)C)C2=O)C[N]4N=CC5=C4N=CN=C5N tested on SEM cells.
469

Give AUC of viability dose-response curve for OCc1ccc(-c2nn(Cc3ccccc3)c3ccccc23)o1 tested on SEM cells.
369

====

Test system: NOMO1
Test: cell viability relative to DMSO control; higher = less cytotoxic
Settings: RPMI 5 mM glucose + 10% dialyzed FBS; 48 h; 0.0211 µM
quantity.name: cell viability (%)
Please respond with the number in % and leave the unit unwritten.

Look up and state reported cell viability for Cc1cccc(-c2nn(C(=S)Nc3ccccc3)cc2-c2ccnc3ccccc23)n1
119

Look up and state reported cell viability for CC(C)(C)C(=O)Oc1ccc([S+](=O)([O-])Nc2ccccc2C(=O)NCC(=O)O)cc1
122

Look up and state reported cell viability for C[C@@H](O)[C@@H]1[C@H]2[C@@H](C)\C(=C(/N2C1=O)C(=O)OCOC(=O)C(C)(C)C)SC3CN(C3)/C4=N/CCS4
119

Look up and state reported cell viability for CCN(CC)C(=S)SSC(=S)N(CC)CC
122

Alright, here's another compound for you.
Look up and state reported cell viability for [NH2][Pt]([NH2])([Cl])[Cl]
85.8

====

Test system: P12-Ichikawa
Test: cell viability relative to DMSO control; higher = less cytotoxic
Conditions: RPMI 5 mM glucose + 10% FBS; 48 h; 1.71 µM
Reported cell viability values for a set of molecules
Please respond with the number in % and leave the unit unwritten.

Give cell viability for Cc1cccc(C)c1OCC(=O)N[C@@H](Cc1ccccc1)[C@@H](O)C[C@H](Cc1ccccc1)NC(=O)[C@H](C(C)C)N1CCCNC1=O tested on P12-Ichikawa.
91.7

Give cell viability for CC(=O)C\1=C(/C)C2=CN=C(NC3=CC=C(C=N3)N4CCNCC4)N=C2N(C5CCCC5)C1=O tested on P12-Ichikawa.
78.6

Give cell viability for OC[C@H](Cc1ccccc1)Nc1nc(Oc2ccc3c(c2)CCC3)nc2c1ncn2Cc1ccc(-c2ccccc2)cc1 tested on P12-Ichikawa.
97.3

Give cell viability for NC1=NC=C(C=C1)C2=CC=C3N=CC\4=C(N(C(=O)\C=C4)C5=CC(=CC=C5)C(F)(F)F)C3=C2 tested on P12-Ichikawa.
27.2

Give cell viability for Cc1ncc(OC[C@@]2(c3cccc(F)c3)C[C@H]2C(=O)Nc2ccc(F)cn2)c(C)n1 tested on P12-Ichikawa.
107

Next:
Give cell viability for C\C1=C\C(=O)C2=C(C=CC=C2)C1=O tested on P12-Ichikawa.
135

Give cell viability for NC(=O)c1ncn([C@@H]2O[C@H](CO)[C@@H](O)[C@H]2O)n1 tested on P12-Ichikawa.
104

Give cell viability for OC(=O)\C1=C\N(C2=CC=C(F)C=C2)C3=C(C=C(F)C(=C3)N4CCNCC4)C1=O tested on P12-Ichikawa.
121

Give cell viability for OC[C@H]1O[C@H]([C@@H](F)[C@@H]1O)N2\C=C/C(=O)NC2=O tested on P12-Ichikawa.
102

Give cell viability for O=C1Nc2ccc(Cl)cc2[C@@](C#CC2CC2)(C(F)(F)F)O1 tested on P12-Ichikawa.
85

Give cell viability for CC(C)Oc1cc(Nc2nc(N[C@@H](C)c3ccc(F)cn3)ncc2Cl)n[nH]1 tested on P12-Ichikawa.
15.2

Give cell viability for OCc1ccc(-c2nn(Cc3ccccc3)c3ccccc23)o1 tested on P12-Ichikawa.
104

Give cell viability for CCOC(=O)N1CCN(/[N+]([O-])=N/Oc2ccc([N+](=O)[O-])cc2[N+](=O)[O-])CC1 tested on P12-Ichikawa.
97.1

Give cell viability for C[N+]1(C)[C@@H]2C[C@@H](OC(=O)[C@H](CO)c3ccccc3)C[C@H]1[C@@H]1O[C@@H]12.[Br-] tested on P12-Ichikawa.
98.7

Give cell viability for CN(C)CCc1c[nH]c2ccc(C[C@H]3COC(=O)N3)cc12 tested on P12-Ichikawa.
102

Give cell viability for Oc1ccc(C2CCN(c3ccnc4ccccc34)CC2)cc1O tested on P12-Ichikawa.
110

Give cell viability for COC[C@@H](NC(C)=O)C(=O)NCc1ccccc1 tested on P12-Ichikawa.
110

Give cell viability for C[C@@H](O)[C@@H]1[C@H]2[C@@H](C)\C(=C(/N2C1=O)C(=O)OCOC(=O)C(C)(C)C)SC3CN(C3)/C4=N/CCS4 tested on P12-Ichikawa.
111

====

Tested on: NOMO1
Assay: cell viability relative to DMSO control; higher = less cytotoxic
Details: HPLM + 10% dialyzed FBS; 48 h; 0.19 µM
quantity.name: cell viability (%)
Please respond with the number in % and leave the unit unwritten.

Below, 4 molecules whose answers are already recorded.
Look up and state reported cell viability for NC(=O)c1ncn([C@@H]2O[C@H](CO)[C@@H](O)[C@H]2O)n1
103

Look up and state reported cell viability for C[C@@H](O)[C@@H]1[C@H]2[C@@H](C)\C(=C(/N2C1=O)C(=O)OCOC(=O)C(C)(C)C)SC3CN(C3)/C4=N/CCS4
113

Look up and state reported cell viability for c1cc(CN2CCCNCCNCCCNCC2)ccc1CN1CCCNCCNCCCNCC1
108

Look up and state reported cell viability for CC(C)[C@@H](C[S+](=O)([O-])C(C)C)N1C(=O)[C@@](C)(CC(=O)O)C[C@H](c2cccc(Cl)c2)[C@H]1c1ccc(Cl)cc1
97.9

Next:
Look up and state reported cell viability for CC(=O)N1CCN(c2ccc(OC[C@H]3CO[C@](Cn4ccnc4)(c4ccc(Cl)cc4Cl)O3)cc2)CC1
102
